# system: ΔF508-CFTR (Homo sapiens, UniProt P13569, DEL508-508)
# Construct: host or cells: CFBE41o-, doxycycline-inducible
# Sequence (P13569 with tags, fused parts or gaps DEL508-508): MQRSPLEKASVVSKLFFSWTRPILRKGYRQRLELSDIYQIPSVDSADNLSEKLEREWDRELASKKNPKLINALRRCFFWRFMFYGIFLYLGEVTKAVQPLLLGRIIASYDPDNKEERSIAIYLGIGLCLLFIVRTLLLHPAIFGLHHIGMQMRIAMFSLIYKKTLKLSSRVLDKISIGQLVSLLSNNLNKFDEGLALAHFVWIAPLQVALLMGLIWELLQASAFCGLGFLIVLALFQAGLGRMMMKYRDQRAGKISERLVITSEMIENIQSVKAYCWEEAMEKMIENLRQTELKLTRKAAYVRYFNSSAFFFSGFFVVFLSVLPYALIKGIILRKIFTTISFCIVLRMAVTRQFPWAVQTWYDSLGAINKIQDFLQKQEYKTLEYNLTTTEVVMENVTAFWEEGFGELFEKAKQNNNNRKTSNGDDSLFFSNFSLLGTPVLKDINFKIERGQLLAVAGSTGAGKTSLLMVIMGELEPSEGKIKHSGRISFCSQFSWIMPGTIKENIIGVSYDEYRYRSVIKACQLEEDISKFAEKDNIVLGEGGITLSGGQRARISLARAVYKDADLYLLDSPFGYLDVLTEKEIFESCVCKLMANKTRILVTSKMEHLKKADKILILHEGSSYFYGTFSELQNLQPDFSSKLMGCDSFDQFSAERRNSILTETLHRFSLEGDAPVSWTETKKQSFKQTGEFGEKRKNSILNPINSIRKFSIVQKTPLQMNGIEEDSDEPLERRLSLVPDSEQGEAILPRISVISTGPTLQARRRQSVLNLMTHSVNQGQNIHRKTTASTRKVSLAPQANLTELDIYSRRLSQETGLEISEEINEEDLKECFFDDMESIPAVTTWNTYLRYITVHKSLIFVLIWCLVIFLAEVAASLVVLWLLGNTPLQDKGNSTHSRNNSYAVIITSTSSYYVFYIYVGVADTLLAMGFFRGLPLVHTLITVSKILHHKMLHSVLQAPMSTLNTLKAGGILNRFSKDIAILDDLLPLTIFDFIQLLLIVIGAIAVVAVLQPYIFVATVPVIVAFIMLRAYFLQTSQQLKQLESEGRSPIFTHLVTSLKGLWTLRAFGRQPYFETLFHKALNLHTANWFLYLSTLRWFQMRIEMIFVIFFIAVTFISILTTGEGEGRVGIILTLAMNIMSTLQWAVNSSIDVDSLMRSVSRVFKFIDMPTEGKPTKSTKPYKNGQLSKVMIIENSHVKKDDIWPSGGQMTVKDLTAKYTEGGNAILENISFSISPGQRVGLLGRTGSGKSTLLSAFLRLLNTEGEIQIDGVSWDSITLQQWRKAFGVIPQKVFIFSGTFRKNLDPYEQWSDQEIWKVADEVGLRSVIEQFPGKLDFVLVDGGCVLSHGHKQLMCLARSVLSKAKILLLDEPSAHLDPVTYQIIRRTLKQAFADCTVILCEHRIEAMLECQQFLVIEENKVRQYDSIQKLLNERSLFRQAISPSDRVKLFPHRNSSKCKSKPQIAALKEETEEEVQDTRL
# test_description: CFTR cell surface levels using HRP-tagged ΔF508-CFTR expressing CFBE cells, intrinsic corrector capacity
# Assay type: cell-based
# cond: HRP-tagged ΔF508-CFTR expressing CFBE41o- cells; compound alone (intrinsic corrector capacity); 20 hours at 33° C.; read-out: EC50
value_type: EC50 (nM)
Numbers only, in nM.

// below: answered compounds
| compound | EC50 / nM |
| --- | --- |
| O=C(NS(=O)(=O)CCO)c1cc(N2CCC(N3CCOCC3)CC2)c2c(C3CCC3)nn(-c3ccc(F)cc3)c2n1 | 477 |
| COCC1CCN(c2cc(C(=O)N3CCCS3(=O)=O)nc3c2c(C2CCC2)nn3-c2ccccc2)CC1 | 208 |
| CS(=O)(=O)NC(=O)c1cc(-c2ccc(N3CCC(C#N)CC3)nc2)c2c(n1)n(-c1ccccc1)nc2[C@H]1C[C@@H](F)C1 | 381 |
| CNS(=O)(=O)NC(=O)c1cc(N2CCC(N3CCN(C(C)C)CC3)CC2)c2c(C3CCC3)nn(-c3ccc(F)cc3)c2n1 | 241 |

Hello, I would appreciate it if you could give EC50 for each entry below.
1. Cc1cccc(-n2nc(C3CCC3)c3c(N4CCC(N5CCOCC5)CC4)cc(C(=O)NS(C)(=O)=O)nc32)c1
2. COCCN1CCN(S(=O)(=O)NC(=O)c2cc(N3CCC(COC)CC3)c3c(C4CCC4)nn(-c4ccc(F)cc4)c3n2)CC1
3. CC(C)c1nn(-c2ccc(F)cc2)c2nc(C(=O)NS(C)(=O)=O)cc(N3CCC4(CCCO4)CC3)c12
4. CC(C)Oc1nn(C2CCCCC2)c2nc(C(=O)NS(C)(=O)=O)cc(-c3ccc(CN4CCN(C(C)C)CC4)cc3)c12
5. COC1CCN(c2ccc(-c3cc(C(=O)NS(C)(=O)=O)nc4c3c(C(C)C)nn4C3CCCCC3)cn2)C1 (centres unmarked)
6. CCS(=O)(=O)NC(=O)c1cc(-c2ccc(N3CCOCC3)cc2)c2c(C3(C)CCC3)nn(-c3ccccc3)c2n1
7. COCC1CCN(c2cc(C(=O)NS(=O)(=O)N3CCN(C4CC4)CC3)nc3c2c(C2CCC2)nn3-c2ccc(F)cc2)CC1
8. CCS(=O)(=O)NC(=O)c1cc(-c2ccc(OC)cc2)c2c(C)nn(-c3ccccc3)c2n1

327
186
570
200
526
334
249
1190

Provide reported EC50 for each item, in the same order as listed.
1. COCC1CCN(c2cc(C(=O)NS(=O)(=O)C3CCNC3)nc3c2c(C2CCC2)nn3-c2ccccc2)CC1 (centres unmarked)
2. O=C(NS(=O)(=O)C1CCOC1)c1cc(N2CCC(CCN3CCOCC3)CC2)c2c(C3CCC3)nn(-c3ccc(F)cc3)c2n1 (centres unmarked)

[462, 408]

----------
# system: CFTR ΔF508 (Homo sapiens, UniProt P13569, DEL508-508)
# Construct: bronchial epithelial cells isolated from CF patients homozygous for the CFTR ΔF508 mutation; McGill University; Asterand; University of North Carolina hAEC-CF; host or cells: primary human bronchial epithelial cells from CF patients homozygous for ΔF508, differentiated at air-liquid interface
# Sequence (P13569 with tags, fused parts or gaps DEL508-508): as above
# test_description: Chronic TECC assay, primary bronchial epithelial cells of CF patients homozygous for CFTR ΔF508 (corrector, co-corrector and potentiator)
# Type: cell-based
# cond: chronic TECC; AUC = full area under the curve upon forskolin stimulation; read-out: EC50 (nM) (AUC**)
Exercise: state measured EC50 for each of the compounds provided.
Numbers only, in nM.

| compound | readout_unit | assay_value |
| --- | --- | --- |
| COC(C)(C)C1CCN(c2cc(C(=O)NS(C)(=O)=O)nc3c2c(C2CCC2)nn3-c2ccccc2)CC1 [Compound 294] | nM | 21 |
| COCCS(=O)(=O)NC(=O)c1cc(N2CCC(COC)CC2)c2c(C(C)C)nn(CC3CCC3)c2n1 [Compound 263] | nM | 77 |
| CC(C)c1nn(-c2ccc(F)cc2)c2nc(C(=O)NS(C)(=O)=O)cc(N3CCC(N4CCCCC4)CC3)c12 [Compound 348] | nM | 200 |
| COC(=O)N1CCC2CN(c3cc(C(=O)NS(C)(=O)=O)nc4c3c(C3CCC3)nn4-c3ccccc3)CCC21 (centres unmarked) [Compound 215] | nM | 45 |
| COC1CCN(c2cc(C(=O)NS(C)(=O)=O)nc3c2c(C(C)C)nn3-c2ccc(F)cc2)CC1 [Compound 167] | nM | 32 |
| CN(C)S(=O)(=O)NC(=O)c1cc(N2CCC(N3CCC(F)(F)CC3)CC2)c2c(C3CCC3)nn(-c3ccc(F)cc3)c2n1 [Compound 526] | nM | 14.2 |

For every listed record, write down its EC50.
1. CS(=O)(=O)NC(=O)c1cc(N2CCC(CN3CCOCC3)CC2)c2c(C3CCC3)nn(-c3ccc(F)cc3)c2n1 [Compound 410]
2. CNS(=O)(=O)NC(=O)c1cc(N2CCC(N3CCN(C(C)C)CC3)CC2)c2c(C3CCC3)nn(-c3ccc(F)cc3)c2n1 [Compound 638]

1: 1.58; 2: 11.2

Would you mind listing EC50 for each of the following compounds?
1. COCC1CCN(c2cc(C(=O)NS(=O)(=O)N(C)C)nc3c2c(C2CCC2)nn3-c2ccccc2)CC1 [Compound 402]
2. COCCS(=O)(=O)NC(=O)c1cc(N2CCC(COC)CC2)c2c(C(C)C)nn(-c3ccc(F)cc3)c2n1 [Compound 236]
3. CN(C)S(=O)(=O)NC(=O)c1cc(N2CCC(N3CCN(C4CC4)CC3)CC2)c2c(C3CCC3)nn(-c3ccccc3)c2n1 [Compound 549]

12.1
80
243

----------
# system: CFTR ΔF508 (Homo sapiens, UniProt P13569, DEL508-508)
# Construct: bronchial epithelial cells isolated from CF patients homozygous for the CFTR ΔF508 mutation; McGill University; Asterand; University of North Carolina hAEC-CF; host or cells: primary human bronchial epithelial cells from CF patients homozygous for ΔF508, differentiated at air-liquid interface
# test_description: Chronic TECC assay, primary bronchial epithelial cells of CF patients homozygous for CFTR ΔF508 (corrector, co-corrector and potentiator)
# Type: cell-based
# cond: chronic TECC; test compound at 3 μM; AUC = full area under the curve upon forskolin stimulation
value_type: % Activity at 3 μM (AUC**) (%)
Numbers only, in %.

| compound | % Activity at 3 μM (AUC**) [%] |
| --- | --- |
| CN(C)S(=O)(=O)NC(=O)c1cc(N2CCC3C(CCN3C3COC3)C2)c2c(C3CCC3)nn(-c3ccc(F)cc3)c2n1 (stereo not drawn) [Compound 627] | 446.6667 |
| O=C(NS(=O)(=O)N1CCC1)c1cc(N2CCC(N3CCOCC3)CC2)c2c(C3CCC3)nn(-c3ccc(F)cc3)c2n1 [Compound 576] | 225.798 |

Report % Activity at 3 μM (AUC**) under test system CFTR ΔF508 (Homo sapiens, UniProt P13569, DEL508-508) for O=C(NS(=O)(=O)N1CCC(F)C1)c1cc(N2CCC(N3CCOCC3)CC2)c2c(C3CCC3)nn(-c3ccc(F)cc3)c2n1 (stereo not drawn) [Compound 537] .
261.5724

----------
Please provide measured pEC50 for the entries that follow.
# system: ΔF508-CFTR (Homo sapiens, UniProt P13569, DEL508-508)
# Construct: host or cells: CFBE41o-, doxycycline-inducible
# test_description: CFTR cell surface levels using HRP-tagged ΔF508-CFTR expressing CFBE cells, in the presence of a co-corrector
# Assay type: cell-based
# cond: HRP-tagged ΔF508-CFTR CFBE cells, in the presence of 3 μM co-corrector; read-out: EC50
One number for each entry, as −log10 of the molar value.

| compound | pEC50 |
| --- | --- |
| CN(C)S(=O)(=O)NC(=O)c1cc(N2CCC3C(CCN3C3CCOCC3)C2)c2c(C3CCC3)nn(-c3ccc(F)cc3)c2n1 (stereo not shown) | 6.88 |

I need pEC50 for every entry listed below, if you could help.
1. COCC1CCN(c2cc(C(=O)NS(C)(=O)=O)nc3c2c(C2CCC2)nn3-c2ccnc(C3CCOCC3)c2)CC1
2. CC(C)(C)c1nn(C2CCCC2)c2nc(C(=O)NS(C)(=O)=O)cc(-c3ccc(N4CCOCC4)nc3)c12
3. CC(C)c1nn(-c2ccnc(N3CCCC3)c2)c2nc(C(=O)NS(C)(=O)=O)cc(-c3ccc(N4CCC(C#N)CC4)nc3)c12
4. CC(C)(O)C1CCN(c2cc(C(=O)NS(C)(=O)=O)nc3c2c(C2CCC2)nn3-c2ccccc2)CC1

1. 7.36
2. 6.15
3. 6.57
4. 7.31

Give me pEC50 for each of these compounds, listed below.
1. CS(=O)(=O)NC(=O)c1cc(N2CCC(N3CCCC(C#N)C3)CC2)c2c(C3CCC3)nn(-c3ccc(F)cc3)c2n1 (stereo not shown)
2. CCS(=O)(=O)NC(=O)c1cc(N2CCC(C(C)N3CCOCC3)CC2)c2c(C3CCC3)nn(-c3ccc(F)cc3)c2n1 (stereo not shown)

1: 6.40; 2: 7.11
